Taken from patent US9193669B2.

Listed compounds paired with reported inhibition in vivo at 1 mg/kg
target: isomerase (Mus musculus); construct: The recovery of 11-cis-retinal after bleaching can be used to estimate the activity of isomerase in vivo; from tissue; host or cells: eyes of living mice (CD-1; Balb/c also named); assay: In vivo murine isomerase assay; design: species or system mice; conditions: mouse, po, 4 h; read-out: % Inibition 1 mg/kg, 4 h
Sequence (Q91ZQ5 whole entry): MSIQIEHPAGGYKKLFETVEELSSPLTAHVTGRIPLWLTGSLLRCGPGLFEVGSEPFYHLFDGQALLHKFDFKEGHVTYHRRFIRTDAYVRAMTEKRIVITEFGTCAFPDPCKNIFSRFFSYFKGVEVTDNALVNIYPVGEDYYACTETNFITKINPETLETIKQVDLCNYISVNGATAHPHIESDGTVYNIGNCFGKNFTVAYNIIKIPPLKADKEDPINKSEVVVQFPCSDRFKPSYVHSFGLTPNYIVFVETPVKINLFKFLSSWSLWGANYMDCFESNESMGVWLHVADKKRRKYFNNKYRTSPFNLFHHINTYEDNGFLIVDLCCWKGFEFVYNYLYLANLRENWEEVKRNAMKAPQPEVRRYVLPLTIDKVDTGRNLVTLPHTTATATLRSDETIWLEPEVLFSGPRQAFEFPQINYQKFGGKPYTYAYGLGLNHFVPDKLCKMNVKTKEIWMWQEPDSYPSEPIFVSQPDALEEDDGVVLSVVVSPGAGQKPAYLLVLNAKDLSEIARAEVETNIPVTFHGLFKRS
endpoint_name: inhibition in vivo at 1 mg/kg (%)

> print(dat)
                                    compound                  endpoint.name  unit.descriptor  number
 1  NCCC(O)c1cccc(NCC2CCCCC2)c1 (stereo not shown) [Example 11]  inhibition in vivo at 1 mg/kg                %    95.3
 2  [2H]/C(=C(/[2H])C(O)(CCC)CCC)c1cccc(C(O)CCN)c1 (stereo not shown) [Example 117]  inhibition in vivo at 1 mg/kg                %    97.9
 3  NCCCc1cccc(NS(=O)(=O)c2ccccc2)c1 [Example 99]  inhibition in vivo at 1 mg/kg                %   -3.83
 4  NCCC(=O)c1cccc(NS(=O)(=O)c2ccccc2)c1 [Example 103]  inhibition in vivo at 1 mg/kg                %   -2.77
 5  [2H]C(O)(CCN)c1cccc(NCC2CCCCC2)c1 (stereo not shown) [Example 81]  inhibition in vivo at 1 mg/kg                %      85
 6  NCCC(O)c1cccc(NCC2CCCC2)c1 (stereo not shown) [Example 39]  inhibition in vivo at 1 mg/kg                %    69.9
 7  NCCC(=O)c1cccc(NCC2CCCC2)c1 [Example 40]  inhibition in vivo at 1 mg/kg                %    1.24
 8  [2H]C([2H])(CN)C(O)c1cccc(NS(=O)(=O)C2CCCCC2)c1 (stereo not shown) [Example 58]  inhibition in vivo at 1 mg/kg                %    6.94
 9  CN(CC1CCCCC1)c1cccc(C(O)CCN)c1 (stereo not shown) [Example 90]  inhibition in vivo at 1 mg/kg                %    3.17
10  NCCC(=O)c1cccc(NC(=O)C2CCCCC2)c1 [Example 16]  inhibition in vivo at 1 mg/kg                %    17.1
